target: T1, 006 PSMA Fab; experiment: clonal phage ELISA on captured PSMA Fab pre-incubated with PSMA antigen as competitor, anti-M13 HRP detection;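 note: crude clonal phage supernatants tested by ELISA, wells first treated with blocking buffer plus PSMA antigen, bound phage read out via HRP-linked anti-M13 antibody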
T1 construct: also called Anti-PSMA Fab
Where no end group is shown, it is not given here.
OBSERVATION_TYPE: Phage binding ELISA signal, Anti-PSMA Fab with PSMA antigen
Output spec: single numeric token, no unit.

1. HPKLCTPEWMCVIQ (cysteine pairing not given here; also: fused to pIII of bacteriophage, linker and pIII sequence not given here, Clonal phage of the Peptide-180 optimization library, tested as crude phage supernatant; not shown: fused to pIII of the bacteriophage) [Phage-2838]; 0.104

For the binder WEVRCVPEWMCVGF (cysteine pairing not given here; also: fused to pIII of bacteriophage, linker and pIII sequence not given here, Clonal phage of the Peptide-180 optimization library, tested as crude phage supernatant; not shown: fused to pIII of the bacteriophage) [Phage-2846] , what Phage binding ELISA signal, Anti-PSMA Fab with PSMA antigen is on record? 0.119

Which Phage binding ELISA signal, Anti-PSMA Fab with PSMA antigen is reported for this binder? DWKLCKPTWMCESL (cysteine pairing not given here; also: fused to pIII of bacteriophage, linker and pIII sequence not given here, Clonal phage of the Peptide-180 optimization library, tested as crude phage supernatant; not shown: fused to pIII of the bacteriophage) [Phage-2836] 0.0664
